# Tested on: OVCAR-3
# ASSAY_REMARKS: NCI tumour cell line growth inhibition, 48 h
Calls of active or inactive are those of the source. Rule as the data show it: active = GI50 up to about 1.1 µM and inactive = higher.
Result category, one only: label 1 for active, label 0 for inactive

Q: // param item: ClC1=C(Cl)C(Cl)(Cl)c2c3c(c4c(c21)C(Cl)(Cl)C(Cl)=C4Cl)C(Cl)(Cl)C(Cl)=C3Cl ; yields the recorded call
Result: label 0

Q: // param item: Cc1cn(C2CC(OC3CCCCO3)C(CO)O2)c(=O)[nH]c1=O (centres undefined) ; yields the recorded call
Result: label 0

Q: // param item: CC(C)CCCC(C)[C@H]1CC[C@H]2N/C(=N/Cc3ccccc3)CCC[C@]12C (some centres undefined) ; yields the recorded call
Result: label 0

Q: // param item: CC(C)(C)OC(=O)N(O)[C@@H]1C=C[C@H](n2cnc3c(N)ncnc32)C1 ; yields the recorded call
Result: label 0

Q: // param item: NNC(=O)COc1nc(-c2cccs2)nc2ccc(I)cc12 ; yields the recorded call
Result: label 0

Q: // param item: CCCCCCC(=O)C/C(CCC(=O)N(Cc1ccccc1)Cc1ccccc1)=N\NC(N)=O ; yields the recorded call
Result: label 0

Q: // param item: O=C1c2ccccc2-c2c1c(-c1ccc([N+](=O)[O-])cc1)nc1ccc3ccccc3c21 ; yields the recorded call
Result: label 0

Q: // param item: S=C1CC(c2ccccc2)Sc2cc(Cl)ccc2N1 (centres undefined) ; yields the recorded call
Result: label 0

Q: // param item: Cc1nc2c(n1CCCl)C(=O)c1ccccc1C2=O ; yields the recorded call
Result: label 0

Q: // param item: CCc1ccc(/C(C)=N/NC(N)=S)cc1 ; yields the recorded call
Result: label 0

Q: // param item: COc1ccccc1N1C(Cl)C(=O)C1c1c[nH]c2ccccc12 (centres undefined) ; yields the recorded call
Result: label 0

Q: // param item: CC(=O)OCC1OC(n2c(-c3ccc(N)cc3)cc(-c3ccco3)c(C#N)c2=O)C(OC(C)=O)C(OC(C)=O)C1OC(C)=O (centres undefined) ; yields the recorded call
Result: label 0

Q: // param item: COc1ccc(OC)c(/C=C/c2ccnc3ccccc23)c1 ; yields the recorded call
Result: label 1

Q: // param item: O=C(O)c1cc2ccccc2c(Cc2c(O)c(C(=O)O)cc3ccccc23)c1O ; yields the recorded call
Result: label 0

Q: // param item: CCc1cccc(C)c1N1C(=O)C(=O)C(c2nc3ccccc3o2)/C(=N/NC(=S)NN)C1=O (centres undefined) ; yields the recorded call
Result: label 0

Q: // param item: Cn1cc(-c2cnc(-c3cn(C)c4ccccc34)cn2)c2ccccc21 ; yields the recorded call
Result: label 0

Q: // param item: COc1cc(/N=N/N(C)C)c(C(C)c2c3cc(OC)c(OC)cc3cc[n+]2C)cc1OC (centres undefined) ; yields the recorded call
Result: label 0

Q: // param item: COCCOC(C)C(=O)C(O)S(=O)(=O)O (centres undefined) ; yields the recorded call
Result: label 0

Q: // param item: Cc1ccc(O)c(Cc2nc3ccccc3nc2-c2cccc(Br)c2)c1 ; yields the recorded call
Result: label 0

Q: // param item: O=C(O)c1ccccc1/C=C1/Cc2ccc3c(c2C1=O)CCC3 ; yields the recorded call
Result: label 0

Q: // param item: CC(=O)NN1C(=O)C(Cc2ccccc2)c2ccccc21 (centres undefined) ; yields the recorded call
Result: label 0

Q: // param item: C[C@@]12c3c4ccc(C=O)c3Oc3ccc(C=O)c(c31)Oc1c(C=O)ccc(c12)O4 ; yields the recorded call
Result: label 0

Q: // param item: CC1(CCc2ccccc2)CC1(Br)Br (centres undefined) ; yields the recorded call
Result: label 0

Q: // param item: CCOC(=O)C1CCCCN1C(=O)OCc1ccccc1 (centres undefined) ; yields the recorded call
Result: label 0

Q: // param item: Cn1c(=O)ccc2c(=O)c3ccccc3oc21 ; yields the recorded call
Result: label 0

Q: // param item: C=CC(C)(C)c1cc([C@@H]2COc3cc(O)ccc3C2=O)c(O)c(OC)c1OC ; yields the recorded call
Result: label 0

Q: // param item: CC(C)c1ccc(C2NC(S)=NC3=C2c2ccccc2C3=O)cc1 (centres undefined) ; yields the recorded call
Result: label 0

Q: // param item: CC(=O)NC1CC(C(C)(C)NC(C)=O)CC=C1C (centres undefined) ; yields the recorded call
Result: label 0

Q: // param item: COc1cc(Cc2nccc3cc(OC)c(OC)cc23)c(/N=N/N(C)C)cc1OC ; yields the recorded call
Result: label 0

Q: // param item: O=C(/C=C/CC(O)(c1ccccc1)c1ccccc1)Nc1ccccc1Cl ; yields the recorded call
Result: label 0

Q: // param item: COc1ccc([N+](=O)[O-])cc1[I+]c1cc([N+](=O)[O-])ccc1OC ; yields the recorded call
Result: label 0

Q: // param item: Nc1nc(Cl)cc(NCC2(O)CCCC2)n1 ; yields the recorded call
Result: label 0

Q: // param item: COC1(OC)CC2C(=O)N(Cc3ccccc3)C1C=C2S(=O)(=O)c1ccccc1 (centres undefined) ; yields the recorded call
Result: label 0

Q: // param item: CN(C)Cc1cc(C(=O)/C=C/c2ccccc2Cl)cc(CN(C)C)c1O ; yields the recorded call
Result: label 0

Q: // param item: O=C(Cc1nc2ccccc2o1)C(=O)Nc1ccc(Cl)cc1Cl ; yields the recorded call
Result: label 0

Q: // param item: COC(=O)C1=C(c2cc(OC)c(OC)c(OC)c2)OC(c2ccc3c(c2)OCO3)C1 (centres undefined) ; yields the recorded call
Result: label 0

Q: // param item: O=C1Nc2ccccc2/C1=N/N1C(=O)/C(=C/c2ccccc2S)N=C1c1ccccc1 ; yields the recorded call
Result: label 0

Q: // param item: CCOc1nnnc2[nH]cnc12 ; yields the recorded call
Result: label 0

Q: // param item: O=C(Nc1ccc(F)cc1)c1cc2ccc(O)cc2o/c1=N\c1ccccc1F ; yields the recorded call
Result: label 0

Q: // param item: CC(=O)Nn1cnc(C(=N)C#N)c1N ; yields the recorded call
Result: label 0

Q: // param item: CC12CC3C(CC1SCC(=O)O2)C3(C)C (centres undefined) ; yields the recorded call
Result: label 0

Q: // param item: Cc1cc(O)no1 ; yields the recorded call
Result: label 0

Q: // param item: Nc1nc(N)c2c(CCc3ccc(C(=O)N[C@@H](CCC(=O)O)C(=O)O)cc3)ccnc2n1 ; yields the recorded call
Result: label 1

Q: // param item: CCN(CC)c1c(C)c(C(=O)OC)nn1-c1ccccc1 ; yields the recorded call
Result: label 0

* * *

# Tested on: PC-3
# ASSAY_REMARKS: NCI tumour cell line growth inhibition, 48 h
Calls of active or inactive are those of the source. No stated cut-off is given here; in the data, active = GI50 up to about 1.1 µM and inactive = higher. Starred links: 1 amine or outer side, 2 acyl side, 3 side chain; linkers in the order of their positions; H or OH if unused. Positions of bridges follow the written chain, without caps; N, C: chain ends. Non-standard residues stand in square brackets, D forms with d. Residues, ends and D or L forms follow the SMILES beside them. ξ: configuration not given here. *: point of attachment. γ4hArg(2R,3R-(OH)2) = N=C(N)NCCC[C@H](N[*:1])[C@@H](O)[C@@H](O)C(=O)[*:2]; Gln(3S,4R-Me2) = C[C@H]([C@H](N)C(=O)O)[C@@H](C)C(N)=O; X50 = CC(C)C[C@H](C)[C@@H](O)[C@@H](C)C(=O)*; X51 = COC(c1ccc(O)cc1)C(N[*:1])C(=O)[*:2]; NMeQ = CN[C@@H](CCC(N)=O)C(=O)O; Thr(3ξ) = CC(O)[C@H](N)C(=O)O; NMeA = CN[C@@H](C)C(=O)O
Result category, one only: t (active), f (inactive)

Q: // param item: Cc1c2oc3c(C)cc(F)c(C(=O)NC4C(=O)NC(C(C)C)C(=O)N5CCCC5C(=O)N(C)CC(=O)N(C)C(C(C)C)C(=O)OC4C)c3nc-2c(C(=O)NC2C(=O)NC(C(C)C)C(=O)N3CCCC3C(=O)N(C)CC(=O)N(C)C(C(C)C)C(=O)OC2C)c(N)c1=O (stereo unspecified) ; yields the recorded call
Result: t

Q: // param item: COC(c1ccc(O)cc1)C1NC(=O)[C@H](CCC(N)=O)N(C)C(=O)[C@H](CC(C)C)NC(=O)[C@@H](CCCN=C(N)N)NC(=O)[C@H](C(C)O)NC(=O)[C@@H](NC(=O)[C@@H](NC(=O)[C@H](O)[C@H](O)[C@H](CCCN=C(N)N)NC(=O)[C@H](C)NC(=O)[C@H](C)[C@H](O)[C@@H](C)CC(C)C)[C@@H](C)[C@@H](C)C(N)=O)[C@@H](C)OC(=O)[C@H](C)N(C)C1=O (stereo partly drawn) (X50-A[γ4hArg(2R,3R-(OH)2)][Gln(3S,4R-Me2)]T[Thr(3ξ)][dR]L[NMeQ][X51][NMeA]; ester 4-C) ; yields the recorded call
Result: t

Q: // param item: CCOc1cc2c(cc1O)C(O)C[C@@H]1[C@@H]2CC[C@]2(C)[C@@H](O)CC[C@@H]12 (stereo partly specified) ; yields the recorded call
Result: f

Q: // param item: Cc1cc(NC[C@H](O)[C@H](O)[C@H](O)CO)c(Sc2cc(=O)[nH]c(=O)[nH]2)cc1C ; yields the recorded call
Result: f

Q: // param item: Nc1nc(Cl)cc(NCC2(O)CCCC2)n1 ; yields the recorded call
Result: f

Q: // param item: COc1ccc2c(c1OC(C)=O)C1=CC(=O)CCC13CCNC3C2 (stereo unspecified) ; yields the recorded call
Result: f

Q: // param item: CN(N)/N=N/c1[nH]cnc1[N+](=O)[O-] ; yields the recorded call
Result: f

Q: // param item: O=C(O)c1ccccc1/C=C1/Cc2ccc3c(c2C1=O)CCC3 ; yields the recorded call
Result: f

Q: // param item: CC[N+](C)(CC)CCC(O)(c1ccccc1)c1ccccc1 ; yields the recorded call
Result: f

Q: // param item: CN(C)CCNC(=O)c1cc(-c2nccn2C)nc2ccccc12 ; yields the recorded call
Result: f

Q: // param item: CN(C)Cc1cc(C(=O)/C=C/c2ccccc2Cl)cc(CN(C)C)c1O ; yields the recorded call
Result: f

Q: // param item: COC1=C(OC)C23CCc4ccc(OC)c(O)c4C2(CCN3)CC1=O (stereo unspecified) ; yields the recorded call
Result: f

Q: // param item: CCOP(=O)(Nc1ccc2oc(=O)c3ccccc3c2c1)OCC ; yields the recorded call
Result: f

Q: // param item: O=C1N[C@@H]([C@H](CCCCCO)OC(=O)c2ccccc2)CO1 ; yields the recorded call
Result: f

Q: // param item: CC(=O)Nn1cnc(C(=N)C#N)c1N ; yields the recorded call
Result: f

Q: // param item: CC1(C)CC(=O)C2=C(C1)NC1=C(C(=O)CC(C)(C)C1)C2c1ccc([N+](=O)[O-])cc1 ; yields the recorded call
Result: f
